Reported IC50 against Protease (Human immunodeficiency virus 1, UniProt Q9YQ12), gathered from multiple publications, appears below.
READOUT_KIND: IC50 (µM)

MOLECULE	READOUT_KIND	RESULT_COMPARATOR	NUMERIC_READOUT
O=C(N[C@@H](Cc1ccccc1)[C@@H](O)C[C@@H](Cc1ccccc1)C(=O)N[C@H]1c2ccccc2C[C@H]1O)O[C@H]1CCOC1	IC50	<	3e-05
CC(C)C[C@H](NC(=O)[C@H](CSCCOCCOCCSC[C@H](NC(=O)COc1ccccc1)C(=O)N[C@@H](Cc1ccccc1)C(=O)O)NC(=O)COc1ccccc1)C(=O)N[C@@H](Cc1ccccc1)C(N)=O	IC50	=	2.9
CCCC(=O)O[C@H]1CC[C@]2(C)[C@H]3CC=C4[C@@H]5CC(C)(C)CC[C@]5(C(=O)NCCCCCCCCCCC(=O)NCC(=O)O)CC[C@@]4(C)[C@]3(C)CC[C@H]2C1(C)C	IC50	>	50
O=C(N[C@@H](CC[C@@H](Cc1ccccc1)NC(=O)[C@H](CO)NC(=O)N(Cc1cncs1)C1CC1)Cc1ccccc1)OCc1cncs1	IC50	>	30
CC(C)CN(C[C@@H](O)[C@H](Cc1ccccc1)NC(=O)Cn1cnc2cncnc21)S(=O)(=O)c1ccc([N+](=O)[O-])cc1	IC50	=	2.58
Cc1cn([C@H]2C[C@H](n3cc(CNCC(=O)N(Cc4ccccc4)Cc4cc5ccccc5oc4=O)nn3)[C@@H](CO)O2)c(=O)[nH]c1=O	IC50	=	35.1
CCCCCC(=O)O[C@H]1CC[C@]2(C)[C@H]3CC=C4[C@@H]5CC(C)(C)CC[C@]5(C(=O)NCCCCCCCCCCC(=O)NCC(=O)O)CC[C@@]4(C)[C@]3(C)CC[C@H]2C1(C)C	IC50	>	50
CC(C)(C)NC(=O)[C@@H]1C[C@@H]2CCCC[C@@H]2CN1C[C@@H](O)[C@H](Cc1ccccc1)NC(=O)O[C@H]1CO[C@H]2OCC[C@H]21	IC50	=	0.0018
CC(=O)O[C@H]1CC[C@]2(C)[C@H]3CC=C4[C@@H]5CC(C)(C)CC[C@]5(C(=O)NCCCC(=O)NCC(=O)O)CC[C@@]4(C)[C@]3(C)CC[C@H]2C1(C)C	IC50	>	50
CCC(=O)O[C@H]1CC[C@]2(C)[C@H]3CC=C4[C@@H]5CC(C)(C)CC[C@]5(C(=O)NCCCCCC(=O)N[C@H](C(=O)O)C(C)C)CC[C@@]4(C)[C@]3(C)CC[C@H]2C1(C)C	IC50	>	50
CC(C)C[C@@H](CO)NC(=O)[C@@H]1O[C@H]2CN(Cc3ccccc3)C(=O)[C@@H]1O2	IC50	=	2.6
C[C@@H]1[C@H]2[C@H]3CC[C@@H]4[C@@]5(C)C=C(O)C(=O)C(C)(C)[C@@H]5CC[C@@]4(C)[C@]3(C)CC[C@@]2(C(=O)O)CC[C@H]1C	IC50	=	25.4
COc1ccc(S(=O)(=O)N(CC(C)C)C[C@@H](O)[C@H](Cc2ccccc2)NC(=O)Cn2cnc3c(Cl)ncnc32)cc1	IC50	=	0.043
CCC(=O)N[C@@H](CSCCOCCOCCSC[C@H](NC(=O)CC)C(=O)N[C@@H](CC(C)C)C(=O)N[C@@H](Cc1ccccc1)C(N)=O)C(=O)N[C@@H](Cc1ccccc1)C(=O)O	IC50	=	130
Cc1cccc(C)c1N(CC(=O)N[C@@H](Cc1ccccc1)[C@@H](O)CN(CC(C)C)S(=O)(=O)c1ccc([N+](=O)[O-])cc1)CC(=O)N(C)C	IC50	=	5.88
COc1ccc(N(CC(=O)N[C@@H](Cc2ccccc2)[C@@H](O)CN(CC(C)C)S(=O)(=O)c2ccc([N+](=O)[O-])cc2)CC(=O)N2CCOCC2)cc1	IC50	=	19.2
CC(C)CN(C[C@@H](O)[C@H](Cc1ccccc1)NC(=O)CN(CC(=O)N(C)C)[C@H]1CCOC1)S(=O)(=O)c1ccc2c(c1)OCO2	IC50	=	0.0569
COc1cc(O)cc(O)c1C(=O)/C=C/c1ccccc1	IC50	=	115
CC[C@H](C)[C@H](N)C(=O)N[C@@H](C)C(=O)N[C@@H](CCC(=O)O)C(=O)NC12NC(=O)C3(O)C4C5CC(C6C5C3C61)C42 (mixture of isomers)	IC50	=	0.5
CC1(C)CC(=O)C2=C(C1)Nc1ccccc1N(C(=O)C(=O)N1CC3=C(CC(C)(C)CC3=O)Nc3ccccc31)C2	IC50	=	0.2
COC(=O)[C@@H](NC(=O)[C@]12CCC(C)(C)C[C@@H]1C1=CC[C@@H]3[C@@]4(C)CC[C@H](O)C(C)(C)[C@@H]4CC[C@@]3(C)[C@]1(C)CC2)C(C)C	IC50	=	24.6
CC(=O)O[C@H]1CC[C@]2(C)[C@H]3CC=C4[C@@H]5CC(C)(C)CC[C@]5(C(=O)NCCCC(=O)N[C@H](C(=O)O)C(C)C)CC[C@@]4(C)[C@]3(C)CC[C@H]2C1(C)C	IC50	>	50
